- Assay Summary: Cell Viability - LYMP2-012 (AID 982);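 further: cellular ATP by luciferase luminescence where a drop means cytotoxicity; cells exposed to compound for one day before reading; nearly all actives have a fitted effect of over 55% in size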
- Measurement Context: LYMP2-012 lymphoblastoid cell viability qHTS; series mostly up to 92.2 µM
Results filed as inconclusive are left out. Activity calls are given as the source filed them. The call rests on the fitted dose curve; in most records, active means well fitted cell-killing curve with a large enough effect; inconclusive means small, poorly fitted or top-dose-only effect; inactive means flat fitted curve, though single readings scatter.
Property: outcome

# count of solved cases: 8
[[record]]
compound = "N#CC(Cl)(Cl)Cl"
property = "outcome"
readout_value = "inactive"

[[record]]
compound = "Nc1cc(Cl)cc(Cl)c1"
property = "outcome"
readout_value = "inactive"

[[record]]
compound = "Clc1cccc(Cl)c1Cl"
property = "outcome"
readout_value = "inactive"

[[record]]
compound = "CCOC(=O)C1OC1(C)c1ccccc1 (stereo not given)"
property = "outcome"
readout_value = "inactive"

[[record]]
compound = "O=[N+]([O-])c1ccc(Cl)cc1"
property = "outcome"
readout_value = "inactive"

[[record]]
compound = "N#CCc1ccccc1"
property = "outcome"
readout_value = "inactive"

[[record]]
compound = "O=C(Cc1ccccc1)OCc1ccccc1"
property = "outcome"
readout_value = "inactive"

[[record]]
compound = "O=C(O)c1cccc(Cl)c1"
property = "outcome"
readout_value = "inactive"


INPUT: Fill in: outcome of CCOP(=S)(OCC)SCCSCC is ___
OUTPUT: inactive
